parameterMeasured: Kd (µM)
Numeric only. Scale: µM

[Q] Record `Cc1cc2nc3c(=O)[nH]c(=O)nc-3n(C[C@H](O)[C@H](O)[C@H](O)COP(=O)(O)OP(=O)(O)OC[C@H]3O[C@@H](n4cnc5c(N)ncnc54)[C@H](O)[C@@H]3O)c2cc1C` : what is its Kd with UniProt:A0A1B1V585?
[A] 6.8
